System: SF-295
Experiment: NCI tumour cell line growth inhibition, 48 h
Calls of active or inactive are those of the source. Rule as the data show it: active = GI50 up to about 1.1 µM and inactive = higher.
Outcome codes: Y = active, N = inactive

[
  {
    "COMPOUND": "N#C/N=C1\\NCCC(=O)N1CCc1c[nH]c2ccccc12",
    "ASSIGNED_LABEL": "N"
  },
  {
    "COMPOUND": "C=CCCC1(CCP(=O)(c2ccccc2)c2ccccc2)OCCO1",
    "ASSIGNED_LABEL": "N"
  },
  {
    "COMPOUND": "C[C@]12Cc3cnn(-c4ccc(F)cc4)c3NC1CC[C@@H]1C2CC[C@@]2(C)C1CC[C@@H]2O (some centres not stated)",
    "ASSIGNED_LABEL": "N"
  },
  {
    "COMPOUND": "[O-][S+](CCc1ccccc1)Nc1ccccc1 (configuration not stated)",
    "ASSIGNED_LABEL": "N"
  },
  {
    "COMPOUND": "COc1cccc(NC(=O)/C(Cc2nc3ccccc3nc2C)=N/NC(=O)C[n+]2ccccc2)c1",
    "ASSIGNED_LABEL": "N"
  },
  {
    "COMPOUND": "Cc1noc2cccc(OCc3ccccc3)c12",
    "ASSIGNED_LABEL": "N"
  },
  {
    "COMPOUND": "CC1(C)CCC[C@]2(C)[C@@H]1CC[C@@]13O[C@@H]1C1=C(CO)C(=O)O[C@]14O[C@@H]4[C@@H]23",
    "ASSIGNED_LABEL": "N"
  },
  {
    "COMPOUND": "S=C(N/N=C(\\c1ccccc1)c1ccccn1)NC1CCCCC1",
    "ASSIGNED_LABEL": "N"
  },
  {
    "COMPOUND": "C/C(CC(=O)Nc1ccc(Cl)c(Cl)c1)=N/NC(=O)C[N+](C)(C)C",
    "ASSIGNED_LABEL": "N"
  },
  {
    "COMPOUND": "O=C1CCC23CC(C=CC=C12)n1c(=O)n(-c2ccccc2)c(=O)n13 (configuration not stated)",
    "ASSIGNED_LABEL": "N"
  },
  {
    "COMPOUND": "CC[C@@H]1/C=C/C=C/C[C@H](C)[C@@H](O)[C@](C)(O)C(=O)[C@H](C)[C@@H](O)[C@H](C)C(=O)[C@H](C)[C@@H](O)[C@H](C)/C=C/C(=O)O[C@H]2[C@@H](C)[C@@H](CC1)O[C@@]1(CC[C@@H](C)[C@@H](CC(C)O)O1)[C@@H]2C (some centres not stated)",
    "ASSIGNED_LABEL": "Y"
  },
  {
    "COMPOUND": "CCc1cccc(C)c1NC(=O)CC1C(=O)Nc2ccccc2[S+]1[O-] (configuration not stated)",
    "ASSIGNED_LABEL": "N"
  },
  {
    "COMPOUND": "CC1=C/C(=C(/c2ccc(O)c(C)c2)c2ccccc2C(=O)O)C=CC1=O",
    "ASSIGNED_LABEL": "N"
  },
  {
    "COMPOUND": "C[n+]1c2ccccc2c2/c(=C\\C#N)c3ccccc3n21",
    "ASSIGNED_LABEL": "N"
  },
  {
    "COMPOUND": "O=c1c(Br)cc2c(-c3ccccc3)c3cc(Br)c(O)c(Br)c3oc-2c1Br",
    "ASSIGNED_LABEL": "N"
  },
  {
    "COMPOUND": "CCOC(OC1=C(C#N)CCCC1)C(C)[Se]c1ccccc1 (configuration not stated)",
    "ASSIGNED_LABEL": "N"
  },
  {
    "COMPOUND": "COc1ccc2nc3ccccc3c(NCCCCCN(CCCl)CCCl)c2c1",
    "ASSIGNED_LABEL": "Y"
  },
  {
    "COMPOUND": "COc1ccc2c(ccc3c(C(=O)NCCCN(C)CCCNC(=O)c4cn(C)c5c4ccc4cc(OC)ccc45)cn(C)c32)c1",
    "ASSIGNED_LABEL": "N"
  },
  {
    "COMPOUND": "CCN(CC)C(=O)CC12CCCCC1=Nc1ccccc12 (configuration not stated)",
    "ASSIGNED_LABEL": "N"
  },
  {
    "COMPOUND": "CCOC(=O)c1ccc(-c2onc(C)c2Br)[nH]1",
    "ASSIGNED_LABEL": "N"
  },
  {
    "COMPOUND": "COC(=O)C(=O)C(C#N)c1c(Cl)cccc1Cl (configuration not stated)",
    "ASSIGNED_LABEL": "N"
  },
  {
    "COMPOUND": "c1cc(-c2ccc(-c3nc4ccc(C5=NCCN5)cc4s3)s2)ccc1C1=NCCN1",
    "ASSIGNED_LABEL": "Y"
  },
  {
    "COMPOUND": "O=C1C=CC(=O)c2cc(Sc3ccccc3)c(=O)ccc21",
    "ASSIGNED_LABEL": "N"
  },
  {
    "COMPOUND": "C=C(C)[C@@H]1CC[C@]2(CO)CC[C@]3(C)[C@H](CC[C@@H]4[C@@]5(C)CC[C@H](O)C(C)(C)[C@@H]5CC[C@]43C)[C@@H]12",
    "ASSIGNED_LABEL": "N"
  },
  {
    "COMPOUND": "CCOc1ccc2[nH]c3c(C)c4cc[n+](C)cc4c(C)c3c2c1",
    "ASSIGNED_LABEL": "Y"
  },
  {
    "COMPOUND": "Cc1ccc(NC(=O)OCC(COc2ccc(Cl)cc2)OC(=O)Nc2ccc(C)cc2)cc1 (configuration not stated)",
    "ASSIGNED_LABEL": "N"
  },
  {
    "COMPOUND": "Cc1cccc(CC(Cc2ccc(C)cc2C(=O)O)C(=O)O)c1 (configuration not stated)",
    "ASSIGNED_LABEL": "N"
  }
]
